Entries and their shrunken log2 fold change
- Tested on: Escherichia coli TOP10;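 further: peptides expressed intracellularly from a pBAD plasmid library in pooled LB shake-flask culture, induced with 0.3% L-arabinose, DNA abundance read by NGS, three biological replicates, DESeq2 with apeglm shrinkage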
- TEST DESCRIPTION: shrunken log2 fold change of peptide-encoding DNA abundance (4.5 h post-induction vs induction); higher = less antimicrobial activity (less host growth inhibition)
- ASSAY CONTEXT: time post-induction: 4.5 h; library: site-saturation at positions 5, 18, 19, 20
Lab note: jot down the number only; don't add units.

{"RESIDUE STRING": "RRIRNRPPRLPRPRPRPFQQPRP", "MEASUREMENT KIND": "shrunken log2 fold change", "RECORDED VALUE": -0.00931}
{"RESIDUE STRING": "RRIRARPPRLPRPRPRPTCQPRP", "MEASUREMENT KIND": "shrunken log2 fold change", "RECORDED VALUE": 0.431}
{"RESIDUE STRING": "RRIRIRPPRLPRPRPRPYKLPRP", "MEASUREMENT KIND": "shrunken log2 fold change", "RECORDED VALUE": -1.04}
{"RESIDUE STRING": "RRIRSRPPRLPRPRPRPMSHPRP", "MEASUREMENT KIND": "shrunken log2 fold change", "RECORDED VALUE": -0.109}
{"RESIDUE STRING": "RRIRSRPPRLPRPRPRPMCHPRP", "MEASUREMENT KIND": "shrunken log2 fold change", "RECORDED VALUE": -0.576}

Q. Please give the measured shrunken log2 fold change for this sequence: RRIRERPPRLPRPRPRPPQFPRP
A. -0.151

Q. Please give the measured shrunken log2 fold change for this sequence: RRIRERPPRLPRPRPRPCMGPRP
A. -0.0551

Q. Please give the measured shrunken log2 fold change for this sequence: RRIRQRPPRLPRPRPRPLNTPRP
A. -0.937

Q. Please give the measured shrunken log2 fold change for this sequence: RRIRHRPPRLPRPRPRPNWFPRP
A. -0.0203

Q. Please give the measured shrunken log2 fold change for this sequence: RRIRVRPPRLPRPRPRPQYIPRP
A. -0.655

Q. Please give the measured shrunken log2 fold change for this sequence: RRIRMRPPRLPRPRPRPFFWPRP
A. 0.593

Q. Please give the measured shrunken log2 fold change for this sequence: RRIRCRPPRLPRPRPRPARHPRP
A. 0.061
